# Test system: Mus musculus
# ASSAY REMARKS: In vivo antitumor activity against P388 mouse leukemia and minimum affective dose (MED) which produced a T/C greater than the threshold value of 125 was reported.
# Type: functional
# MEASUREMENT SETUP: read-out: MED
MEASURED ENDPOINT: minimal effective dose (mg/kg)
Numbers only here, please. The scale is mg/kg.

| STRUCTURE SMILES | minimal effective dose, mg/kg |
| --- | --- |
| CCN(CC)c1ccc2c(cc1=O)[C@@H](NC(C)=O)CCc1cc(OC)c(OC)c(OC)c1-2 | 0.39 |
| COc1cc2c(c(OC)c1OC)-c1ccc(SC)c(=O)cc1[C@@H](NC(C)=O)CC2 | 0.05 |
| CNc1ccc2c(cc1=O)[C@@H](NC(C)=O)CCc1cc(OC)c(OC)c(OC)c1-2 | 0.04 |
| COc1cc2c(c(OC)c1OC)-c1ccc(SCc3ccccc3)c(=O)cc1[C@@H](NC(C)=O)CC2 | 3.12 |

Field: next molecule
// Input: COc1cc2c(c(OC)c1OC)-c1ccc(OC)c(=O)cc1[C@@H](NC(C)=O)CC2 . Output its minimal effective dose only.
0.06
